# assayed-system: recombinant human Muscarinic M1 receptor (Homo sapiens (Human), UniProt P11229)
# Sequence (P11229 whole entry): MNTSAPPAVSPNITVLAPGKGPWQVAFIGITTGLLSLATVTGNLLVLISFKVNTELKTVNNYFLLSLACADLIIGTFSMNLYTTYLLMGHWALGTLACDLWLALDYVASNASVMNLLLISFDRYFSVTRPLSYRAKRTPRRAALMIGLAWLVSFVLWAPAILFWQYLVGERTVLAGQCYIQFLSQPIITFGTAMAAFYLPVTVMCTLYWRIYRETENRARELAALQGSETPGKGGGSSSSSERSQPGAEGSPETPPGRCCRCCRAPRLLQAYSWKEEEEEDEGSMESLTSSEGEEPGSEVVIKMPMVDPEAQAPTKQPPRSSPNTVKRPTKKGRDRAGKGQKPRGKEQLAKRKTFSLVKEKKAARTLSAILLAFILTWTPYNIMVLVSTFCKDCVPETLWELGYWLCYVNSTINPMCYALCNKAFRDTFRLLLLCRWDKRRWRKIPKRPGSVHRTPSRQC
# assay-summary: Allosteric potency EC50, CHO cells with pCRE-Luc reporter, in presence of EC20 of acetylcholine
# cond: 4 hours
pEC50: −log10 of the molar value.
property-measured: pEC50

[[record]]
compound = "O=C(N[C@H]1CCCC[C@@H]1O)C1=CN(Cc2ccnc(Cl)c2)c2cccc(F)c2O1 [Example 54]"
assayed_system = "recombinant human Muscarinic M1 receptor (Homo sapiens (Human), UniProt P11229)"
property_measured = "pEC50"
meas_value = 7.06

[[record]]
compound = "O=C(N[C@H]1CCCC[C@@H]1O)C1=CN(Cc2ccncc2)c2ccccc2S1 [Example 90]"
assayed_system = "recombinant human Muscarinic M1 receptor (Homo sapiens (Human), UniProt P11229)"
property_measured = "pEC50"
meas_value = 6.22

[[record]]
compound = "Cc1ncccc1CN1C=C(C(=O)N[C@H]2CCCC[C@@H]2O)Oc2ccccc21 [Example 27]"
assayed_system = "recombinant human Muscarinic M1 receptor (Homo sapiens (Human), UniProt P11229)"
property_measured = "pEC50"
meas_value = 5.86

[[record]]
compound = "O=C(N[C@H]1CCCC[C@@H]1O)C1=CN(Cc2ccnc(-c3ccccc3)c2)c2ccccc2O1 [Example 52]"
assayed_system = "recombinant human Muscarinic M1 receptor (Homo sapiens (Human), UniProt P11229)"
property_measured = "pEC50"
meas_value = 5.87


---

# assay-summary: Rodent pharmacokinetic study
# Type: in vivo, rat
# cond: rat, plasma; 3 mg/kg oral (gavage), male Wistar rats
Tmax values for the molecules below.
property-measured: Tmax (min)

[[record]]
smiles_record = "COc1cc(CN2C=C(C(=O)N[C@H]3CCCC[C@@H]3O)Oc3ccccc32)ccn1"
meas_value = 60

[[record]]
smiles_record = "O=C(N[C@H]1CCCC[C@@H]1O)C1=CN(Cc2ccccc2)c2ccccc2O1"
meas_value = 34.8

[[record]]
smiles_record = "O=C(N[C@H]1CCCC[C@@H]1O)C1=CN(Cc2ccc(Cl)nc2)c2ccccc2O1"
meas_value = 40.2

[[record]]
smiles_record = "O=C(N[C@H]1CCCC[C@@H]1O)C1=CN(Cc2cccc(F)c2F)c2ccccc2O1"
meas_value = 25.2

[[record]]
smiles_record = "COc1cccc(CN2C=C(C(=O)N[C@H]3CCCC[C@@H]3O)Oc3ccccc32)c1"
meas_value = 79.8

[[record]]
smiles_record = "O=C(N[C@H]1CCCC[C@@H]1O)C1=CN(Cc2ccc(F)c(F)c2)c2ccccc2O1"
meas_value = 100

[[record]]
smiles_record = "O=C(N[C@H]1CCCC[C@@H]1O)C1=CN(Cc2ccccc2F)c2ccccc2O1"
meas_value = 30

[[record]]
smiles_record = "O=C(N[C@H]1CCCC[C@@H]1O)C1=CN(Cc2ccccn2)c2ccccc2S1"
meas_value = 19.8


---

# assayed-system: recombinant human Muscarinic M1 receptor (Homo sapiens (Human))
# assay-summary: Allosteric potency EC50, CHO cells with pCRE-Luc reporter, in presence of EC20 of acetylcholine
# cond: 4 hours
pEC50: −log10 of the molar value.
property-measured: pEC50

[[record]]
compound = "O=C(NC1CCOCC1O)C1=CN(Cc2cccc(F)c2F)c2ccccc2O1 (centres unmarked)"
meas_value = 5.90

[[record]]
compound = "O=C(N[C@H]1CCCC[C@@H]1O)C1=CN(Cc2ccc(Cl)c(Cl)c2)c2ccccc2O1"
meas_value = 6.80

[[record]]
compound = "O=C(N[C@H]1CCCC[C@@H]1O)C1=CN(Cc2ccccn2)c2ccccc2O1"
meas_value = 6.04

[[record]]
compound = "O=C(N[C@H]1CCCC[C@@H]1O)C1=CN(Cc2ccc(Cl)nc2)c2ccccc2O1"
meas_value = 6.43

[[record]]
compound = "Cn1ccc(-c2cc(CN3C=C(C(=O)N[C@H]4CCCC[C@@H]4O)Oc4ccccc43)ccn2)n1"
meas_value = 6.00

[[record]]
compound = "COc1cc(CN2C=C(C(=O)NCC(C)(C)O)Oc3ccccc32)ccn1"
meas_value = 5.82

[[record]]
compound = "O=C(N[C@H]1CCCC[C@@H]1O)C1=CN(Cc2ccccc2)c2ccccc2O1"
meas_value = 5.84

[[record]]
compound = "O=C(N[C@H]1CCCC[C@@H]1O)C1=CN(Cc2ccccc2Cl)c2cccc(F)c2O1"
meas_value = 6.58

[[record]]
compound = "O=C(N[C@H]1CCCC[C@@H]1O)C1=CN(Cc2cccc(F)c2F)c2ccccc2S1"
meas_value = 6.93

[[record]]
compound = "O=C(N[C@H]1CCCC[C@@H]1O)C1=CN(Cc2ccncc2)c2ccccc2O1"
meas_value = 6.49

[[record]]
compound = "COc1ccc(CN2C=C(C(=O)NCC(C)(C)O)Oc3ccccc32)cn1"
meas_value = 5.87

[[record]]
compound = "Cc1cc(-c2cc(CN3C=C(C(=O)N[C@H]4CCCC[C@@H]4O)Oc4ccccc43)ccn2)cnc1F"
meas_value = 5.87

[[record]]
compound = "O=C(N[C@H]1CCCC[C@@H]1O)C1=CN(Cc2ccc(Cl)nc2)c2ccccc2S1"
meas_value = 6.85

[[record]]
compound = "O=C(N[C@H]1CCCC[C@@H]1O)C1=CN(Cc2ccccc2)c2ccccc2S1"
meas_value = 6.88

[[record]]
compound = "O=C(N[C@H]1CCCC[C@@H]1O)C1=CN(Cc2ccccc2F)c2ncccc2O1"
meas_value = 5.94

[[record]]
compound = "O=C(N[C@H]1CCCC[C@@H]1O)C1=CN(Cc2ccc(Cl)cc2Cl)c2ccccc2O1"
meas_value = 6.60

[[record]]
compound = "O=C(N[C@H]1CCCC[C@@H]1O)C1=CN(Cc2ccccn2)c2c(F)cccc2O1"
meas_value = 5.83


---

pEC50 values for the compounds below.
# assayed-system: recombinant human Muscarinic M1 receptor (Homo sapiens (Human))
# assay-summary: Allosteric potency EC50, CHO cells with pCRE-Luc reporter, in presence of EC20 of acetylcholine
# cond: 4 hours
# Protocol: Determination of Allosteric Potency EC50 Values for Muscarinic M1 Receptor: A stable CHO cell line expressing recombinant human Muscarinic M1 receptor and pCRE-Luc reporter system was used for cell-based assay. The assay offers a non-radioactive based approach to determine binding of a compound to GPCRs. In this specific assay, the level of intracellular cyclic AMP which is modulated by activation or inhibition of the receptor is measured. […]
pEC50: −log10 of the molar value. Structures can show the parent of a compound that is named as a salt.
property-measured: pEC50

[[record]]
compound = "COc1cc(CN2C=C(C(=O)N[C@H]3CCCC[C@@H]3O)Oc3ccccc32)ccn1 [Example 11]"
meas_value = 6.30

[[record]]
compound = "O=C(N[C@H]1CCCC[C@@H]1O)C1=CN(Cc2cccc(C(F)(F)F)c2)c2ccccc2O1 [Example 17]"
meas_value = 6.83

[[record]]
compound = "O=C(N[C@H]1CCCC[C@@H]1O)C1=CN(Cc2ccccc2F)c2ccccc2O1 [Example 1]"
meas_value = 6.37

[[record]]
compound = "O=C(N[C@H]1CCCC[C@@H]1O)C1=CN(Cc2ccncc2)c2cccc(F)c2O1 [Example 57]"
meas_value = 6.75

[[record]]
compound = "O=C(N[C@H]1CCCC[C@@H]1O)C1=CN(Cc2cccc(F)c2F)c2ncccc2O1 [Example 33]"
meas_value = 5.93

[[record]]
compound = "O=C(NC1CCNCC1O)C1=CN(Cc2cccc(F)c2F)c2cccc(F)c2O1 (stereo not shown) [Example 75, trifluoroacetate]"
meas_value = 6.80

[[record]]
compound = "O=C(NC1CCNCC1O)C1=CN(Cc2ccccc2F)c2ccccc2O1 (stereo not shown) [Example 76, trifluoroacetate]"
meas_value = 6.39

[[record]]
compound = "O=C(N[C@H]1CCCC[C@@H]1O)C1=CN(Cc2ccccc2C(F)(F)F)c2ccccc2O1 [Example 37]"
meas_value = 6.27

[[record]]
compound = "O=C(N[C@H]1CCCC[C@@H]1O)C1=CN(Cc2ccnc(Cl)c2)c2ccccc2O1 [Example 24]"
meas_value = 6.29

[[record]]
compound = "O=C(N[C@H]1CCCC[C@@H]1O)C1=CN(Cc2ccc(F)cc2)c2ccccc2S1 [Example 89]"
meas_value = 6.34

[[record]]
compound = "O=C(N[C@H]1CCCC[C@@H]1O)C1=CN(Cc2ccccn2)c2ccccc2S1 [Example 92]"
meas_value = 5.83

[[record]]
compound = "O=C(N[C@H]1CCCC[C@@H]1O)C1=CN(Cc2cccc(F)c2)c2ccccc2O1 [Example 7]"
meas_value = 6.05

[[record]]
compound = "O=C(NC1CCNCC1F)C1=CN(Cc2cccc(F)c2F)c2cccc(F)c2O1 (stereo not shown) [Example 74, hydrochloride]"
meas_value = 5.68

[[record]]
compound = "O=C(N[C@H]1CCCC[C@@H]1O)C1=CN(Cc2cccc(F)c2)c2ccccc2S1 [Example 86]"
meas_value = 6.03

[[record]]
compound = "O=C(N[C@H]1CCCC[C@@H]1O)C1=CN(Cc2cccc(F)c2F)c2ccccc2[S+]1[O-] (stereo partly shown) [Example 93]"
meas_value = 6.04

[[record]]
compound = "O=C(N[C@H]1CCCC[C@@H]1O)C1=CN(Cc2cccc(F)c2)c2cccc(F)c2O1 [Example 51]"
meas_value = 6.38

